assay: Tissue distribution after single oral dose
Format: in vivo, mice
reportedConditions: KM, mouse, reproductive organs (uterus, fallopian tube and ovary); 20 h; oral 500 mg·kg^−1, female mice; read-out: Concentration in Reproductive organs
quantityName: concentration at 20 h
Form entry: enter the amount, then its unit.

Supply reported concentration at 20 h belonging to this compound: CC(C)=C/C=C/[C@H](C)[C@H]1CC[C@]2(C)C[C@@H]3C(C)=CC(=O)[C@H]3/C(C=O)=C\C[C@@H]12 [MHO7, 6-epi-ophiobolin G]
1460 ng/g

====

assay: Tissue distribution after single oral dose
Type: in vivo, mice
reportedConditions: KM, mouse, liver; 30 h; oral 500 mg·kg^−1, female mice; read-out: Concentration in Liver
quantityName: concentration at 30 h (ng/g)
The figure you give is taken to be in ng/g; do not add the unit.

Supply reported concentration at 30 h belonging to this compound: CC(C)=C/C=C/[C@H](C)[C@H]1CC[C@]2(C)C[C@@H]3C(C)=CC(=O)[C@H]3/C(C=O)=C\C[C@@H]12 [MHO7, 6-epi-ophiobolin G]
10

====

assay: Log D by shaking flask method (n-octanol/phosphate buffer)
Assay type: physicochemical
reportedConditions: 37 °C, octanol/PBS pH 5.0, 8 h, read-out: Log P/D Value O/P (pH 5.0)
quantityName: logD at 8 h
The answer should be written as a number, with no unit following it.

Supply reported logD at 8 h belonging to this compound: CC(C)=C/C=C/[C@H](C)[C@H]1CC[C@]2(C)C[C@@H]3C(C)=CC(=O)[C@H]3/C(C=O)=C\C[C@@H]12 [MHO7, 6-epi-ophiobolin G]
1.03

====

assay: Tissue distribution after single oral dose
Format: in vivo, mice
reportedConditions: KM, mouse, heart; 30 h; oral 500 mg·kg^−1, female mice; read-out: Concentration in Heart
quantityName: concentration at 30 h (ng/g)
The figure you give is taken to be in ng/g; do not add the unit.

Supply reported concentration at 30 h belonging to this compound: CC(C)=C/C=C/[C@H](C)[C@H]1CC[C@]2(C)C[C@@H]3C(C)=CC(=O)[C@H]3/C(C=O)=C\C[C@@H]12 [MHO7, 6-epi-ophiobolin G]
80

====

assay: Tissue distribution after single oral dose
Format: in vivo, mice
reportedConditions: KM, mouse, spleen; 4 h; oral 500 mg·kg^−1, female mice; read-out: Concentration in Spleen
quantityName: concentration at 4 h (ng/g)
The figure you give is taken to be in ng/g; do not add the unit.

Supply reported concentration at 4 h belonging to this compound: CC(C)=C/C=C/[C@H](C)[C@H]1CC[C@]2(C)C[C@@H]3C(C)=CC(=O)[C@H]3/C(C=O)=C\C[C@@H]12 [MHO7, 6-epi-ophiobolin G]
430

====

assay: Tissue distribution after single oral dose
Format: in vivo, mice
reportedConditions: KM, mouse, brain; 12 h; oral 500 mg·kg^−1, female mice; read-out: Concentration in Brain
quantityName: concentration at 12 h (ng/g)
The figure you give is taken to be in ng/g; do not add the unit.

Supply reported concentration at 12 h belonging to this compound: CC(C)=C/C=C/[C@H](C)[C@H]1CC[C@]2(C)C[C@@H]3C(C)=CC(=O)[C@H]3/C(C=O)=C\C[C@@H]12 [MHO7, 6-epi-ophiobolin G]
180
